- Tested on: Haemophilus influenzae 1218
- Assay info: MIC, microtiter broth dilution (NCCLS M100-S14), H. influenzae 1218 (susceptible)
- Format: cell-based
- Study conditions: Haemophilus influenzae 1218
MIC H. influenzae 1218 under 0.5 µg/mL gets t, anything at or over 0.5 µg/mL gets f.

{"columns": ["Compound", "Tested on", "Group label"],
 "data": [
  ["CCC1OC(=O)C(C)C(=O)C(C)C(OC2OC(C)CC(N(C)C)C2O)C(C)(OC)CC(C)C(=O)C(C)C2N(C3CN(S(=O)(=O)c4ccc(Oc5ccccn5)cc4)C3)C(=O)OC12C (stereo not shown)", "Haemophilus influenzae 1218", "f"],
  ["CCC1OC(=O)C(C)C(=O)C(C)C(OC2OC(C)CC(N(C)C)C2O)C(C)(OC)CC(C)C(=O)C(C)C2N(CC3CN(C(=O)c4cncc5ccccc45)C3)C(=O)OC12C.O=CO (stereo not shown)", "Haemophilus influenzae 1218", "f"],
  ["CCC1OC(=O)C(C)C(=O)C(C)C(OC2OC(C)CC(N(C)C)C2O)C(C)(OC)CC(C)C(=O)C(C)C2N(C3CN(S(=O)(=O)c4ccc5sc(C)nc5c4)C3)C(=O)OC12C (stereo not shown)", "Haemophilus influenzae 1218", "t"],
  ["CCC1OC(=O)C(C)C(=O)C(C)C(OC2OC(C)CC(N(C)C)C2O)C(C)(OC)CC(C)C(=O)C(C)C2N(C3CN(C(c4ccccc4)c4ccncc4)C3)C(=O)OC12C (stereo not shown) [Example 1.69]", "Haemophilus influenzae 1218", "f"],
  ["CCC1OC(=O)C(C)C(=O)C(C)C(OC2OC(C)CC(N(C)C)C2O)C(C)(OC)CC(C)C(=O)C(C)C2N(C3CN(S(=O)(=O)c4ccc5oc(=O)[nH]c5c4)C3)C(=O)OC12C (stereo not shown) [Example 3.22]", "Haemophilus influenzae 1218", "t"],
  ["CCC1OC(=O)C(C)C(=O)C(C)C(OC2OC(C)CC(N(C)C)C2O)C(C)(OC)CC(C)C(=O)C(C)C2N(CC3CN(Cc4ccnc5ccccc45)C3)C(=O)OC12C (stereo not shown)", "Haemophilus influenzae 1218", "f"],
  ["CCC1OC(=O)C(C)C(=O)C(C)C(OC2OC(C)CC(N(C)C)C2O)C(C)(OC)CC(C)C(=O)C(C)C2N(C3CN(Cc4cnc5ncccc5c4)C3)C(=O)OC12C (stereo not shown)", "Haemophilus influenzae 1218", "t"],
  ["CCC1OC(=O)C(C)C(=O)C(C)C(OC2OC(C)CC(N(C)C)C2O)C(C)(OC)CC(C)C(=O)C(C)C2N(C3CN(S(=O)(=O)c4cccc(-c5ncno5)c4)C3)C(=O)OC12C (stereo not shown)", "Haemophilus influenzae 1218", "f"]
]}
